Hello, the source for this data is ChEMBL document CHEMBL2396525, in case you need it.

Test system: Human alphaherpesvirus 2
Measurement description: Antiviral activity against Herpes simplex virus type 2 G
Format: functional, organism-based
Condition parameters: strain G
The source made the active and inactive calls. The calls are words filed in the database; no cut-off is given here.

- Chemical structure: "O=c1ccn(CCCCCOc2ccc(Br)cc2)c(=O)[nH]1"
  Activity: "inactive"
- Chemical structure: "O=c1ccn(CCCCCOc2ccc([N+](=O)[O-])cc2)c(=O)[nH]1"
  Activity: "inactive"
- Chemical structure: "Cc1ccccc1OCCCCCn1ccc(=O)[nH]c1=O"
  Activity: "inactive"
- Chemical structure: "O=c1ccn(CCCCOc2ccc(Br)cc2)c(=O)[nH]1"
  Activity: "inactive"
- Chemical structure: "N#Cc1ccc(OCCCCCn2ccc(=O)[nH]c2=O)cc1"
  Activity: "inactive"
- Chemical structure: "Cc1cn(CCCCCOc2ccc(Br)cc2)c(=O)[nH]c1=O"
  Activity: "inactive"

* * *

// reported CC50 per item
Test system: HEL
Measurement description: Cytotoxicity against HEL
Type: cell-based
Condition parameters: human

- Chemical structure: "O=c1ccn(CCCCCOc2ccccc2)c(=O)[nH]1"
  CC50: "> 100 µM"
- Chemical structure: "Cc1cccc(OCCCCCn2ccc(=O)[nH]c2=O)c1"
  CC50: "> 100 µM"
- Chemical structure: "N#Cc1ccc(OCCCCCn2ccc(=O)[nH]c2=O)cc1"
  CC50: "100 µM"
- Chemical structure: "Cc1cc(C)cc(OCCCCCn2ccc(=O)[nH]c2=O)c1"
  CC50: "> 100 µM"
- Chemical structure: "O=c1[nH]c(=O)n(CCCCCOc2ccc(Br)cc2)cc1Br"
  CC50: "> 100 µM"
- Chemical structure: "CC(C)c1ccc(OCCCCCn2ccc(=O)[nH]c2=O)cc1"
  CC50: "> 100 µM"
